# system_name: Cruzipain (Trypanosoma cruzi) (UniProt P25779)
# Sequence (P25779 123-467 limits assumed): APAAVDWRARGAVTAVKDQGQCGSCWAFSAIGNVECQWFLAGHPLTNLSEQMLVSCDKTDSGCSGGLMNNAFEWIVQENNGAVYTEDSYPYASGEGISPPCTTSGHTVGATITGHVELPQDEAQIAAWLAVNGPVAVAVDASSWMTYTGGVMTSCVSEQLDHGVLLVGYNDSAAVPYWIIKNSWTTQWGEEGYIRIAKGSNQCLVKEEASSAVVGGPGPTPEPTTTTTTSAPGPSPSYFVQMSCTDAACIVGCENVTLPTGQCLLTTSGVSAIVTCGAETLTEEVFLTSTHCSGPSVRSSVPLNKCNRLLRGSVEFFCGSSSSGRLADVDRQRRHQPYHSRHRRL
# procedure_summary: Inhibition of Trypanosoma cruzi C-terminal truncated cruzain expressed in DH5alpha Escherichia coli at 100 uM by well-microplate spectrophotometry
quantity_kind: inhibition (%)

smiles_record: COc1ccc(/C=N/Nc2nccc(C(F)(F)F)n2)cc1
quantity_kind: inhibition
output_unit: %
numeric_readout: 40
--
smiles_record: O=[N+]([O-])c1ccc(/C=N/Nc2nccc(C(F)(F)F)n2)cc1
quantity_kind: inhibition
output_unit: %
numeric_readout: 50
--
smiles_record: Cc1cc(C(F)(F)F)nc(N/N=C/c2ccc(Cl)cc2)n1
quantity_kind: inhibition
output_unit: %
numeric_readout: 60

---

# system_name: Cruzipain (Trypanosoma cruzi) (UniProt P25779)
# procedure_summary: Inhibition of Trypanosoma cruzi C-terminal truncated cruzain expressed in DH5alpha Escherichia coli at 100 uM by well-microplate spectrophotometry
inhibition values, listed per item
quantity_kind: inhibition (%)

smiles_record: COc1ccccc1/C=N/Nc1nc(C)cc(C(F)(F)F)n1
system_name: Cruzipain (Trypanosoma cruzi) (UniProt P25779)
numeric_readout: 20
--
smiles_record: Cc1ccccc1/C=N/Nc1nccc(C(F)(F)F)n1
system_name: Cruzipain (Trypanosoma cruzi) (UniProt P25779)
numeric_readout: 45
--
smiles_record: FC(F)(F)c1ccnc(N/N=C/c2ccc(Cl)cc2)n1
system_name: Cruzipain (Trypanosoma cruzi) (UniProt P25779)
numeric_readout: 80
--
smiles_record: Cc1cc(C(F)(F)F)nc(N/N=C/c2ccccc2C)n1
system_name: Cruzipain (Trypanosoma cruzi) (UniProt P25779)
numeric_readout: 45
--
smiles_record: FC(F)(F)c1ccnc(N/N=C/c2ccccc2)n1
system_name: Cruzipain (Trypanosoma cruzi) (UniProt P25779)
numeric_readout: 30
--
smiles_record: Cc1ccc(/C=N/Nc2nccc(C(F)(F)F)n2)cc1
system_name: Cruzipain (Trypanosoma cruzi) (UniProt P25779)
numeric_readout: 40

---

pIC50 values, listed per item
# system_name: Cruzipain (Trypanosoma cruzi, UniProt P25779)
# Sequence (P25779 whole entry, the tested form may be a part): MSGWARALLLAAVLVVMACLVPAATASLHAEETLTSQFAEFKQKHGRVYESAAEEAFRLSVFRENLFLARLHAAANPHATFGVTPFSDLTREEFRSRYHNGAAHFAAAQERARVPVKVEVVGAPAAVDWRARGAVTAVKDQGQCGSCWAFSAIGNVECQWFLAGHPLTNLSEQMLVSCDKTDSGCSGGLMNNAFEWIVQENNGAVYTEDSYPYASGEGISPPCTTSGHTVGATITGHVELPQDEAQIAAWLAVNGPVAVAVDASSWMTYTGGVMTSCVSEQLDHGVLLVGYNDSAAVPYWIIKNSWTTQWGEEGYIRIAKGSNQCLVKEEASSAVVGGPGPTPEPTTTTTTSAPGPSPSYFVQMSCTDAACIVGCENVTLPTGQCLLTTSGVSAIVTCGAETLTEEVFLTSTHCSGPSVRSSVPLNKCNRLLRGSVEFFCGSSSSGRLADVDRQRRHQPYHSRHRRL
# procedure_summary: Inhibition of Trypanosoma cruzi C-terminal truncated cruzain expressed in DH5alpha Escherichia coli by well-microplate spectrophotometry
pIC50: −log10 of the molar value.

smiles_record: Cc1cc(C(F)(F)F)nc(N/N=C/c2ccccc2C)n1
pIC50: < 4.00
--
smiles_record: COc1ccccc1/C=N/Nc1nc(C)cc(C(F)(F)F)n1
pIC50: < 3.82
--
smiles_record: Cc1cc(C(F)(F)F)nc(N/N=C/c2ccc(Cl)cc2)n1
pIC50: 4.00
--
smiles_record: Cc1ccccc1/C=N/Nc1nccc(C(F)(F)F)n1
pIC50: < 4.00
--
smiles_record: FC(F)(F)c1ccnc(N/N=C/c2ccccc2)n1
pIC50: < 3.82
--
smiles_record: O=[N+]([O-])c1ccc(/C=N/Nc2nccc(C(F)(F)F)n2)cc1
pIC50: 4.00
--
smiles_record: FC(F)(F)c1ccnc(N/N=C/c2ccc(Cl)cc2)n1
pIC50: 4.07
--
smiles_record: Cc1ccc(/C=N/Nc2nccc(C(F)(F)F)n2)cc1
pIC50: < 4.00
--
smiles_record: COc1ccc(/C=N/Nc2nccc(C(F)(F)F)n2)cc1
pIC50: < 4.00
